- tested.on: human adenosine A2A receptor (Homo sapiens)
- Construct: expressed in transfected cells; host or cells: CHO cells, Semliki Forest virus expression system; washed membrane preparation
- Sequence (P29274 whole entry): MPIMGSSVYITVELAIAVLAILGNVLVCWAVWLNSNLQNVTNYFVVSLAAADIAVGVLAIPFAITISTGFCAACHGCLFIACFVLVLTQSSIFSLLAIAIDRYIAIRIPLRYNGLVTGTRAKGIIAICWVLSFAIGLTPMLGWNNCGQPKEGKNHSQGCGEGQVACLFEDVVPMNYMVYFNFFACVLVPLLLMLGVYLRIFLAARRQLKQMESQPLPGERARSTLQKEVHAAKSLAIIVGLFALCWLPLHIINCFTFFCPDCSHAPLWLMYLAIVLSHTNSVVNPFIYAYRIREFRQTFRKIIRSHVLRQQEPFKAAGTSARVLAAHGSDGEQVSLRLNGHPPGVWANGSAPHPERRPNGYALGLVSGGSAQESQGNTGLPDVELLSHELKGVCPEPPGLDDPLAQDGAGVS
- protocol.description: [3H]-SCH-58261 binding assay on human adenosine A2A receptor membranes (SPA)
- cond: recombinant receptor expressed in CHO cells; radioligand [3H]-SCH-58261 1 nM; Ki by Cheng-Prussoff equation from IC50; read-out: hA2 (pKi) (converted)
# Ki values compiled below
Response body: numeric value in nM, unit text excluded.

Study these solved cases before continuing.
molecule | numeric.result
COc1ccc(N2CCOCC2)c2sc(NC(=O)C[C@H]3CC[C@@H](O)C3)nc12 (single isomer, unassigned) [Example 3] | 6.31
COc1ccc(N2CCOCC2)c2sc(NC(=O)C[C@H]3CC[C@@H](O)CC3)nc12 [Example 5] | 6.31
COc1ccc(N2CCOCC2)c2sc(NC(=O)C[C@H]3CC[C@@H](OC(C)=O)C3)nc12 (single isomer, unassigned) [Example 2] | 6.31

IN: Looking for the measured Ki of COc1ccc(N2CCOCC2)c2sc(NC(=O)C(C)C34CCC(CC3)O4)nc12 (racemic) [Example 7] , can you help?
OUT: 20

IN: Looking for the measured Ki of COc1ccc(N2CCOCC2)c2sc(NC(=O)C[C@H]3CC[C@@H](OC(C)=O)C3)nc12 (single isomer, unassigned) [Example 1] , can you help?
OUT: 10

IN: Looking for the measured Ki of COc1ccc(N2CCOCC2)c2sc(NC(=O)C[C@H]3CC[C@H](O)CC3)nc12 [Example 6] , can you help?
OUT: 3.16

====

measurement.kind: melting point

IN: Looking for the measured melting point of COc1ccc(N2CCOCC2)c2sc(NC(=O)C[C@H]3CC[C@@H](O)CC3)nc12 , can you help?
OUT: 212 to 216 °C

IN: Looking for the measured melting point of COc1ccc(N2CCOCC2)c2sc(NC(=O)C[C@H]3CC[C@H](O)CC3)nc12 , can you help?
OUT: 190 to 192 °C

IN: Looking for the measured melting point of COc1ccc(N2CCOCC2)c2sc(NC(=O)C[C@H]3CC[C@@H](O)C3)nc12 (single isomer, unassigned) [Example 3] , can you help?
OUT: 168 to 171 °C

IN: Looking for the measured melting point of COc1ccc(N2CCOCC2)c2sc(NC(=O)C[C@H]3CC[C@@H](OC(C)=O)C3)nc12 (single isomer, unassigned) [Example 1] , can you help?
OUT: 171 to 172 °C

IN: Looking for the measured melting point of COc1ccc(N2CCOCC2)c2sc(NC(=O)C(C)C34CCC(CC3)O4)nc12 (racemic) , can you help?
OUT: 195 to 197 °C

IN: Looking for the measured melting point of COc1ccc(N2CCOCC2)c2sc(NC(=O)C[C@H]3CC[C@@H](O)C3)nc12 (single isomer, unassigned) [Example 4] , can you help?
OUT: 167 to 170 °C

IN: Looking for the measured melting point of COc1ccc(N2CCOCC2)c2sc(NC(=O)C[C@H]3CC[C@@H](OC(C)=O)C3)nc12 (single isomer, unassigned) [Example 2] , can you help?
OUT: 172 to 173 °C

Data origin: patent US7449461B2
